tested on: BDF1 mice, Friend leukemia sc, tumor weight T/C; test: NCI In Vivo Anticancer Drug Screen. Data for tumor model Friend Virus Leukemia (Solid) (subcutaneous) in B6D2F1 (BDF1) mice; details: endpoint: mean tumor weight; dose: 30.0 mg/kg/injection; schedule: Q01DX011 (ip); vehicle: carboxymethylcellulose (CMC); higher = larger tumour
Inconclusive results are not listed.
readout: T/C

Past entries and their recorded results:
* Nc1nc(N)c(N=O)c(Nc2ccc(Cl)c(Cl)c2)n1 | 91 % of control
* CCC1=C(c2cc(Cl)c3ccccc3c2OCC(=O)O)OC(CC)(C(=O)c2cc(Cl)c3ccccc3c2OCC(=O)O)CC1 (stereo not given) | 52 % of control
* CC1CN1C(=O)c1cc(C(=O)N2CC2C)cc(C(=O)N2CC2C)c1 (stereo not given) | 151 % of control
* O=C1C(=O)C(Cl)=C(Cl)C(Cl)=C1Cl | 90 % of control
* CS(=O)(=O)OCCCOS(C)(=O)=O | 98 % of control
* CN(N=O)C(N)=O | 59 % of control
* CC(=O)Nc1ccc(NC(=O)c2ccc([As](O)O)cc2)cc1 | 111 % of control
* NNC(=O)c1ccncc1 | 75 % of control

Batch of 2 molecules: report T/C for each.
1. Clc1ccc(N2CCN(CCCN3CCN(c4cccc(Cl)c4)CC3)CC2)cc1
2. O=C1N(Cl)C(=O)C(c2ccc(Cl)cc2)(c2ccc(Cl)cc2)N1Cl

OUTPUT:
["62 % of control", "42 % of control"]
